SYSTEM TESTED: T1, p62 ZZ domain (aa 115-190) (human, UniProt Q13501 115-190)
T1 construct: p62/SQSTM1 ZZ domain, human, aa 115-190; uniformly 15N-labeled for NMR; unlabeled for MST; also called p62_(ZZ (115-190)); source: E. coli BL21 (DE3) RIL, purified (glutathione Sepharose, size exclusion)
ASSAY DETAILS: MST; displacement assay: unlabeled peptide added to a preformed complex of 40 uM ZZ (aa 115-190) and 80 nM FAM-labeled peptide; Ki from IC50, called Kd in the text; 10 mM HEPES pH 7.4, 150 mM NaCl, 1 mM TCEP; triplicates
REPORTED CONDITIONS: both partners purified
MEASURED QUANTITY: Kd (µM)

>>> value_observed("KEKKECRRDHR (p62/SQSTM1 regulatory linker between PB1 and ZZ, aa 100-110; also called RL peptide; RL; source: synthetic peptide (SynPeptide or KE BioChem)) [K100EKKECRRDHR110 (p62_(100-110)) peptide]")
320
